# credit: PubChem BioAssay (NCI)

assay: NCI Yeast Anticancer Drug Screen. Data for the mlh1 strain (AID 171);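 also: 0% = growth of vehicle-treated control cultures of the same strain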; conditions: S. cerevisiae mlh1 strain growth inhibition; at 100.0 µM; active compounds read high
This is part of a sample that, as a whole, favours compounds with a hit. Of some 79,000 tested, about 15% had one in any assay.
Is growth inhibition at least 40%? Then 1. If not, -1.

>  <compound>
O=[n+]1c2ccc(Cl)cc2n([O-])c2ccc(Cl)cc21

>  <class-label>
-1

$$$$
>  <compound>
CC(=O)Nc1ccc2c(c1)C(=Nc1ccc(C(=O)O)cc1)c1ccccc1-2

>  <class-label>
1

$$$$
>  <compound>
N#CN1C2CCC1CC(=O)C2

>  <class-label>
-1

$$$$
>  <compound>
COc1ccc(/C=C2\SC(=S)N(/C=C/c3nc4ccccc4[nH]c3=O)C2=O)cc1OC

>  <class-label>
1

$$$$
>  <compound>
O=C(NCCCCCCCN1CCCCCCC1)C(C1CCCCC1)C1CCCCC1

>  <class-label>
1

$$$$
>  <compound>
Cc1cc(I)ccc1N

>  <class-label>
1

$$$$
>  <compound>
CN(C)Cc1cc(N=Nc2ccc(Cl)cc2)cc(CN(C)C)c1O

>  <class-label>
-1

$$$$
>  <compound>
Cn1c(N)nc(-c2ccc(Cl)cc2)c1SSc1c(-c2ccc(Cl)cc2)nc(N)n1C

>  <class-label>
1

$$$$
>  <compound>
CCC(=O)Oc1c(Cl)cc(Cl)c2ccccc12

>  <class-label>
-1

$$$$
>  <compound>
COC(=O)CSSCc1ccc([N+](=O)[O-])cc1

>  <class-label>
1

$$$$
>  <compound>
Cc1ccc(CSC(N)=Nc2ccccc2)cc1C

>  <class-label>
1

$$$$
>  <compound>
O=[N+]([O-])c1cccc2nc3ccccc3c(NCCCN3CCOCC3)c12

>  <class-label>
1

$$$$
>  <compound>
CCN(CC)CCN1C(=O)c2cccc3cc(OC)cc(c23)C1=O

>  <class-label>
-1

$$$$
>  <compound>
O=C(OCC=C1CCCC1)c1cc([N+](=O)[O-])cc([N+](=O)[O-])c1

>  <class-label>
1

$$$$
>  <compound>
CCCCN(CCCC)CCSc1ccc(Cl)cc1

>  <class-label>
1

$$$$
>  <compound>
c1ccc2c(c1)-c1nc3ccccc3cc1C2N1CCOCC1 (configuration not stated)

>  <class-label>
-1

$$$$
>  <compound>
CC(O)C(O)C(O)C(/C=N\Nc1ccccc1)=N/Nc1ccccc1 (configuration not stated)

>  <class-label>
1

$$$$
>  <compound>
Cc1ccc(CCC2=CCCc3c2ccc2ccccc32)cc1

>  <class-label>
-1

$$$$
>  <compound>
CCOC(=O)c1cnc2c(C(F)(F)F)cccc2c1N=[N+]=[N-]

>  <class-label>
1

$$$$
>  <compound>
CCOC(=O)[C@H]1Nc2ccccc2C2c3ccccc3CC21 (some centres not stated)

>  <class-label>
1

$$$$
>  <compound>
Cc1cc(O)cc(O)c1N=Nc1ccc([N+](=O)[O-])cc1

>  <class-label>
-1

$$$$
>  <compound>
O=[N+]([O-])c1cccc2nccc(NCCCO)c12

>  <class-label>
-1

$$$$
>  <compound>
O=[N+]([O-])/C=C/c1ccc2ccccc2c1

>  <class-label>
1

$$$$
>  <compound>
CC(=O)Nc1ccc(/C=C(\C#N)c2ccc(C)cc2)cc1

>  <class-label>
-1

$$$$
>  <compound>
Cc1ccc2ccc(O)cc2c1

>  <class-label>
1

$$$$
>  <compound>
CC(C)(C)c1nc2c(o1)C(=O)c1ccccc1C2=O

>  <class-label>
1

$$$$
>  <compound>
[N-]=N[N+]#I1OC(C(F)(F)F)(C(F)(F)F)c2ccccc21

>  <class-label>
1

$$$$
>  <compound>
S=c1[nH]nc(Nc2ccc(Cl)cc2)s1

>  <class-label>
1

$$$$
>  <compound>
Cc1c(Cl)ccc2c1S(=O)(=O)c1cccc(Cl)c1-2

>  <class-label>
-1

$$$$
>  <compound>
COc1ccc2sc3cccc(NCCN(C)C)c3c(=O)c2c1

>  <class-label>
-1

$$$$
>  <compound>
O=S(=O)(CCCl)c1ccccc1Cl

>  <class-label>
1

$$$$
>  <compound>
CO[C@H]1C[C@](C)(O)Cc2cc3c(c(O)c21)C(=O)c1c(O)cc2c(c1C3=O)O[C@@H]1O[C@@]2(C)[C@H](O)[C@@H](N(C)C)[C@@H]1O

>  <class-label>
-1

$$$$
>  <compound>
CCC[CH2][Ge]([CH2]CCC)([CH2]CCC)[O]C(=O)C(OC)c1ccccc1 (configuration not stated)

>  <class-label>
1

$$$$
>  <compound>
CN(C)c1ccc(C(C#N)=C(C#N)C#N)cc1

>  <class-label>
-1

$$$$
>  <compound>
COc1cc(CC2CC(c3ccc4c(c3)OCO4)OC2=O)cc(OC)c1OC (configuration not stated)

>  <class-label>
-1

$$$$
>  <compound>
NNc1c(F)c(F)cc(F)c1F

>  <class-label>
1

$$$$
>  <compound>
CCC/C(Cl)=N\OC(=O)Nc1cccc(C(F)(F)F)c1

>  <class-label>
-1

$$$$
>  <compound>
CC(C)[N+]([O-])(CCCNc1c2ccccc2nc2cccc([N+](=O)[O-])c12)C(C)C

>  <class-label>
1

$$$$
>  <compound>
COc1ccccc1/C=C1\Sc2scc(-c3cccc([N+](=O)[O-])c3)[n+]2C1=O

>  <class-label>
1

$$$$
>  <compound>
O=Cc1cccc2ccc3ccccc3c12

>  <class-label>
1

$$$$
>  <compound>
CCN(CC)CCC(=O)c1ccc(Oc2ccc(F)cc2)cc1

>  <class-label>
1

$$$$
>  <compound>
Nc1ccn(C2OC(CO)C3[O][Sn]([c]4ccccc4)([c]4ccccc4)[O]C32)c(=O)n1 (configuration not stated)

>  <class-label>
1

$$$$
>  <compound>
c1ccc2c(c1)C(=NCCCN1CCCCCC1)c1cccn1-2

>  <class-label>
1

$$$$
>  <compound>
Cn1c(=O)c(-c2ccccc2)c(N=[N+]=[N-])c2ccccc21

>  <class-label>
1

$$$$
>  <compound>
OC1(c2ccccc2)CSC2=Nc3ccccc3C3CCN1N23 (configuration not stated)

>  <class-label>
1

$$$$
>  <compound>
CCOC(=O)C1=C(C(=O)c2ccccc2)C(c2ccccc2[N+](=O)[O-])C(C(=O)c2ccccc2)=C(C(=O)OCC)N1

>  <class-label>
-1

$$$$
>  <compound>
CN(C)C[C@H]1CC[C@@H](CN(C)C)C1=O

>  <class-label>
-1

$$$$
